target: hCRTH2 (Homo sapiens); parameters: expressed in transfected cells; host or cells: HEK (human embryonic kidney) cells expressing hCRTH2; conditions: Radioligand Binding Assay B; Table B, rated A-D
pKi: −log10 of the molar value.
Recorded pKi by entry

[[record]]
molecule = "CN(C(=O)N1c2ccccc2C(N(C(=O)CCC(=O)O)C2CC2)C2CCCC21)c1ccccc1 (racemic) [23D]"
reported_metric = "pKi"
readout_value = "6.70 to 7.70"


Item O=C(O)CCC(=O)N(C1CC1)C1c2ccccc2N(C(=O)c2ccc(Cl)cc2)C2CCCC21 (racemic) [14K] : provide pKi
7.70 to 8.29

Item O=C(O)CCC(=O)N(C1CC1)[C@@H]1c2ccccc2N(C(=O)N2CCc3ccccc32)[C@@H]2CCC[C@@H]21 (racemic) : provide pKi
6.70 to 7.70

Item O=C(O)CCC(=O)N(C1CC1)C1c2ccccc2N(C(=O)NCc2ccccc2)C2CCCC21 (racemic) [23C] : provide pKi
6.70 to 7.70

Item COC(=O)CCC(=O)N(c1ccccc1)C1c2ccccc2N(C(=O)c2cccnc2)C2CCCC21 (racemic) [12B] : provide pKi
6.70 to 7.70

Item O=C(O)CCC(=O)N(C1CC1)C1c2ccccc2N(C(=O)Oc2ccccc2)C2CCCC21 (racemic) [21K] : provide pKi
5.12 to 6.70

Item O=C(O)CCC(=O)N(C1CC1)C1c2ccccc2N(C(=O)OCc2ccc(Cl)cc2)C2CCCC21 (racemic) [21A] : provide pKi
6.70 to 7.70

* * *

target: UniProtKB Q9Y5Y4; parameters: expressed in transfected cells; host or cells: HEK (human embryonic kidney) cells expressing hCRTH2; conditions: Radioligand Binding Assay B; Table B, rated A-D
pKi: −log10 of the molar value.
reported_metric: pKi

[[record]]
compound = "O=C(O)CCC(=O)N(C1CC1)C1c2ccccc2N(C(=O)OCc2ccc(Cl)c(Cl)c2)C2CCCC21 (racemic) [21L]"
target_system = "UniProtKB Q9Y5Y4"
readout_value = "6.70 to 7.70"

[[record]]
compound = "O=C(O)CCC(=O)N(C1CC1)C1c2ccccc2N(C(=O)OCc2ccncc2)C2CCCC21 (racemic) [21J]"
target_system = "UniProtKB Q9Y5Y4"
readout_value = "5.12 to 6.70"

[[record]]
compound = "O=C(O)CCC(=O)N(C1CC1)C1c2ccccc2N(C(=O)c2cccnc2)C2CCCC21 (racemic) [14i]"
target_system = "UniProtKB Q9Y5Y4"
readout_value = "6.70 to 7.70"


Please find the next compound below.
Provide measured pKi on UniProtKB Q9Y5Y4 for O=C(O)CCC(=O)N(C1CC1)C1c2ccccc2N(C(=O)c2cccc(N3CCOCC3)c2)C2CCCC21 (racemic) [14H] please.
6.70 to 7.70

* * *

Recorded Ki by entry
Target: hCRTH2 (Homo sapiens)
Sequence (Q9Y5Y4 1-395): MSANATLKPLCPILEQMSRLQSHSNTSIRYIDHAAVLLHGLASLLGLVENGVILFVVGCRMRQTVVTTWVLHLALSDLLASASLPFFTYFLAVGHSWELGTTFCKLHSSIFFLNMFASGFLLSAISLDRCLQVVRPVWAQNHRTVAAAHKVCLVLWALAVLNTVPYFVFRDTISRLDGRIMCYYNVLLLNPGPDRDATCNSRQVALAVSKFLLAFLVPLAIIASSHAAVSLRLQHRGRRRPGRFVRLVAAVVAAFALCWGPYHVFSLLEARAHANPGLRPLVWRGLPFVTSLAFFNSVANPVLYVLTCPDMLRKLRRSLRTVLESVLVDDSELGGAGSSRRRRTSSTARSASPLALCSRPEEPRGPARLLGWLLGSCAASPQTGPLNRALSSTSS
Assay: biochemical
Conditions: Ki, Radioligand Binding Assay A; 3.0 nM [3H]PGD2, HEK-hCRTH2 membranes
Enter your answer as a number in nM; do not include the unit.

Known Ki results, listed for orientation:
[[record]]
compound = "O=C(O)CCC(=O)N(C1CC1)[C@H]1c2cc(F)ccc2N(C(=O)c2ccc(OC(F)(F)F)cc2)[C@H]2CCC[C@H]21 [compound 17]"
measure_unit = "nM"
readout_value = 5.1

[[record]]
compound = "CCN(C(=O)CCC(=O)O)C1c2ccccc2N(C(=O)C2CC2c2ccccc2)C2CCCC12 (single isomer, unassigned) [compound 69]"
measure_unit = "nM"
readout_value = 4.97

[[record]]
compound = "O=C(O)CCC(=O)N(C1CCC1)[C@@H]1c2ccccc2N(C(=O)c2cccc(OC(F)(F)F)c2)[C@@H]2CCC[C@@H]21 (single isomer, unassigned) [17DA]"
measure_unit = "nM"
readout_value = 34.2

[[record]]
compound = "O=C(O)CCC(=O)N(C1CCC1)C1c2ccc(Cl)cc2N(C(=O)c2ccc(F)c(F)c2)C2CCCC21 (single isomer, unassigned) [17Co]"
measure_unit = "nM"
readout_value = 10.9

[[record]]
compound = "CCOc1cnc(-c2ccc(C(=O)N3c4ccccc4C(N(C(=O)CCC(=O)O)C4CC4)C4CCCC43)cc2)nc1 (racemic) [18P]"
measure_unit = "nM"
readout_value = 28.5


Provide measured Ki on hCRTH2 (Homo sapiens) for O=C(O)CCC(=O)N(C1CC1)C1c2ccc(Cl)cc2N(C(=O)c2ccc(OC(F)(F)F)cc2)C2CCC21 (single isomer, unassigned) [27K] please.
1.5

Provide measured Ki on hCRTH2 (Homo sapiens) for CCN(C(=O)CCC(=O)O)C1c2ccccc2N(C(=O)OCc2cc(F)cc(F)c2)C2CCCC12 (single isomer, unassigned) [22A] please.
1080

Provide measured Ki on hCRTH2 (Homo sapiens) for O=C(O)CCC(=O)N(C1CC1)C1c2ccccc2N(C(=O)c2ccc(-c3cncs3)cc2)C2CCCC21 (racemic) [18o] please.
9.8

Provide measured Ki on hCRTH2 (Homo sapiens) for O=C(O)CCC(=O)N(C1CC1)C1c2cc(F)ccc2N(C(=O)c2ccc(OC(F)(F)F)cc2)C2CCCC21 (single isomer, unassigned) [compound 134] please.
236

Provide measured Ki on hCRTH2 (Homo sapiens) for Cc1ccc2c(c1)C(N(C(=O)CCC(=O)O)C1CC1)C1CCCC1N2C(=O)c1ccc(OC(F)(F)F)cc1 (single isomer, unassigned) [compound 51] please.
6.9

Provide measured Ki on hCRTH2 (Homo sapiens) for O=C(O)CCCN(C1CC1)[C@@H]1c2ccccc2N(C(=O)c2ccc(OC(F)(F)F)cc2)[C@@H]2CCC[C@@H]21 (racemic) [compound 44] please.
2.54
